Target: human prostanoid FP receptor (Homo sapiens, UniProt P43088)
Construct: expressed in transfected cells
Sequence (P43088 whole entry): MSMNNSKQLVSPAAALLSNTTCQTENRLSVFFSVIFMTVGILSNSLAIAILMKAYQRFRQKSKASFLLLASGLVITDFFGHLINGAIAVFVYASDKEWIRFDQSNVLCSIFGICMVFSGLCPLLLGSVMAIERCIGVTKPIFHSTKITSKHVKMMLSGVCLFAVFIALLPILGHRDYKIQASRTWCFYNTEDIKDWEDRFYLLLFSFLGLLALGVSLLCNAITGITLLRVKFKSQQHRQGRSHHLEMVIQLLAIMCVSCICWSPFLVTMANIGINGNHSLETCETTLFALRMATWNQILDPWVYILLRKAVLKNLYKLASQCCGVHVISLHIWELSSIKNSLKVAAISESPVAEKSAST
Experiment: FLIPR Ca2+ signaling PG antagonist assay, FP stable cell line
Format: cell-based
Details: HEK-293 EBNA cells, human recombinant FP, no exogenous G-protein; standard agonist 17-phenyl-PGF2α
Assign Kb to each entry below.

The molecule O=C(O)c1ccc2c(cnn2Cc2cc(C(F)(F)F)ccc2OCc2ccc(Cl)cc2)c1 showed Kb equal to 0.05 µM

The molecule CC(C)COc1ccc(Br)cc1Cn1cc2cc(C(=O)O)ccc2n1 showed Kb equal to 2.3 µM

The molecule Cc1nn(Cc2cc(Cl)ccc2OCC(C)C)c2ncc(C(=O)O)cc12 showed Kb equal to 1.5 µM

The molecule CC(C)COc1ccc(S(C)(=O)=O)cc1Cn1ncc2cc(C(=O)O)ccc21 showed Kb equal to ≥ 10 µM

The molecule O=C(O)c1cccc2nn(Cc3cc(Cl)ccc3OCc3ccc(Cl)cc3)cc12 showed Kb equal to ≥ 10 µM

The molecule O=C(O)c1cccc2nn(Cc3cc(Cl)ccc3OCC3CC3)cc12 showed Kb equal to 4.3 µM

The molecule Cc1cc2cc(C(=O)O)ccc2n1Cc1cc(Br)ccc1OCC(C)C showed Kb equal to 0.023 µM

The molecule CC(C)COc1ccc(OC(F)(F)F)cc1Cn1ncc2cc(C(=O)O)cnc21 showed Kb equal to 0.06 µM

====

Assign Kb to each entry below.
Target: human prostanoid EP3 receptor (Homo sapiens)
Construct: expressed in transfected cells
Sequence (P43115 whole entry): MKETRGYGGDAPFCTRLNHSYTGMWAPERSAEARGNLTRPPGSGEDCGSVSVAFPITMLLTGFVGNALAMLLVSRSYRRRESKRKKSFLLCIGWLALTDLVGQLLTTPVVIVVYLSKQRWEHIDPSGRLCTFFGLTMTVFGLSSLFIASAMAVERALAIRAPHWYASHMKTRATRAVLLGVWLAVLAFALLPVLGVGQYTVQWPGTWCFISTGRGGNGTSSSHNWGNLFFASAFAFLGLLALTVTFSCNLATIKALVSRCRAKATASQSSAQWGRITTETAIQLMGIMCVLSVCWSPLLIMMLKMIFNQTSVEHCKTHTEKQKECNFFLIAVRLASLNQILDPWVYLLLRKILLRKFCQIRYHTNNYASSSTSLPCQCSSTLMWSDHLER
Assay: FLIPR Ca2+ signaling PG antagonist assay, EP3 stable cell line
Format: cell-based
Settings: HEK-293 EBNA cells, human recombinant EP3 with chimeric Gqi; standard agonist PGE2

Kindly note: human prostanoid EP3 receptor (Homo sapiens), CC(C)(O)COc1ccc(Br)cc1Cn1ncc2cc(C(=O)O)ccc21 , Kb value reported: ≥ 10 µM

Kindly note: human prostanoid EP3 receptor (Homo sapiens), O=C(O)c1cccc2c1cnn2Cc1cc(Cl)ccc1OCC1CC1 , Kb value reported: ≥ 10 µM

Kindly note: human prostanoid EP3 receptor (Homo sapiens), CCC(CC)COc1ccc(Cl)cc1Cn1ncc2ccc(C(=O)O)cc21 [Example 6] , Kb value reported: ≥ 10 µM
